Exercise: for every item that follows, state its recorded GI50.
- Test system: SW-620
- experiment-summary: NCI tumour cell line growth inhibition, 48 h
Calls of active or inactive are those of the source. Cut-off read from the data, not from the text of the source: active = GI50 up to about 1.1 µM and inactive = higher.

- compound: "COc1ccc(/C=C2\\OC(=O)C(Cl)=C2c2ccc(OC)c(Cl)c2)cc1"
  GI50: "36.6 µM (inactive)"
- compound: "CC(C)Cc1ccc(C(C)/C=C2\\CCC(CN3CCCC3)C2=O)cc1 (centres undefined)"
  GI50: "7.18 µM (inactive)"
- compound: "Cc1cccc(C)c1NC(=O)CCC/C(CC(=O)c1ccc(F)cc1)=N\\NC(=O)C(=O)NN"
  GI50: "> 100 µM (inactive)"
- compound: "CCC1NC(=O)C(NC(=O)c2ncccc2O)C(C)OC(=O)C(c2ccccc2)NC(=O)C2CC(=O)CCN2C(=O)C(Cc2ccccc2)N(C)C(=O)C2CCCN2C1=O (centres undefined)"
  GI50: "> 100 µM (inactive)"
- compound: "COc1cc2[nH]c(=O)c3cc(-c4ccccc4)cc4c(Cl)nc(c1OC)c2c43"
  GI50: "3.37 µM (inactive)"

Please give GI50, item by item, for the list that follows.
1. CC(C)NC(=O)OCc1c(COC(=O)NC(C)C)c(-c2ccc[n+](COC(=O)CC(C)(C)C)c2)n2c1CCC2
2. O=C(O)[C@H](Cc1ccccc1)NCCN1CCC[C@H]1C(=O)O
3. COc1cccc(NC(=O)CC(=O)N2N=C(n3ccc4ccccc43)CC2c2ccccc2)c1 (centres undefined)
4. c1ccc2c(-c3csc(-c4c[nH]c5ccccc45)n3)c[nH]c2c1
5. COC(=O)Nc1cc(OCCCOC(C)=O)c2[nH]c(C(=O)OC)cc2c1C[C@H](O)CO
6. Cc1ccc2c(c1)nc1n2C(N)=Nc2ccccc2S1
7. Nc1ccc(CCN2CCN(CCCc3ccccc3)CC2)cc1
8. COc1cc(C2SCC(=O)N2NC(=O)c2ccc(NC(C)=O)cc2)cc(OC)c1OC (centres undefined)

> 100 µM (inactive)
80.4 µM (inactive)
> 100 µM (inactive)
> 100 µM (inactive)
> 100 µM (inactive)
40 µM (inactive)
> 100 µM (inactive)
> 100 µM (inactive)
